Measured values drawn from patent US12247004B2 for this set.

Provide the reported pIC50 of each item.
systemName: Isoleucyl-tRNA synthetase (IleRS) (Escherichia coli (strain K12))
Sequence (P00956 whole entry, looked up): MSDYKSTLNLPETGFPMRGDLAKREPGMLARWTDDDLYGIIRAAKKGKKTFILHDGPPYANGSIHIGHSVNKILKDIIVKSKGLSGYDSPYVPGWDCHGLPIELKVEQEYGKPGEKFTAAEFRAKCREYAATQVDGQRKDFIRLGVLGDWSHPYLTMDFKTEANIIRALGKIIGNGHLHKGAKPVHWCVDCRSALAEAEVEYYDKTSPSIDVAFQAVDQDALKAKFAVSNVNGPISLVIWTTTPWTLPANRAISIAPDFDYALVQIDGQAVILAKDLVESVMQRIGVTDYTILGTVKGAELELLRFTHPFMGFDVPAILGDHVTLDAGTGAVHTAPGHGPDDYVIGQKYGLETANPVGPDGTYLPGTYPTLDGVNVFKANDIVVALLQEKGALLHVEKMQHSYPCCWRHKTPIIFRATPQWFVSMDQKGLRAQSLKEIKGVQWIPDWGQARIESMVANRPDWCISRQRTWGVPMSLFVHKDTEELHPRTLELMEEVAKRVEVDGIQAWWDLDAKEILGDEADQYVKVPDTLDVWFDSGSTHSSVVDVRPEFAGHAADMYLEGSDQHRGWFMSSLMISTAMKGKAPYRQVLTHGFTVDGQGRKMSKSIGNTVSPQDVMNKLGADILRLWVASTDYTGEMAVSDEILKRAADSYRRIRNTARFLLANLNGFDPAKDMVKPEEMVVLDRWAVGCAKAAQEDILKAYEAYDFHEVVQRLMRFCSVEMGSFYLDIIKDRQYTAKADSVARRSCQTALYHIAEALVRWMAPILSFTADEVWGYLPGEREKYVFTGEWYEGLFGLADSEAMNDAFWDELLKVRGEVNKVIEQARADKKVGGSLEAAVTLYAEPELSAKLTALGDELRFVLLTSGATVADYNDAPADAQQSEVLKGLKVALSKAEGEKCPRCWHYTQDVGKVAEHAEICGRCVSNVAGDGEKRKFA
protocolNotes: Isoleucyl-tRNA synthetase enzyme inhibition (AMP-Glo; single point % inhibition at 100 μM and IC50)
Type: biochemical
Keep in mind that pIC50 stands for -log10 of concentration in molar terms.

For CC[C@H](C)[C@H](N)C(=O)N=[S@](N)(=O)c1ccc(C)cc1.Cl [ANASIA-034-1] the molecule record lists pIC50 as 4.83

For CC[C@H](C)[C@H](N)C(=O)N=[S@](N)(=O)c1cccc(Oc2ccc(Cl)cc2)c1 [ANASIA-052-1] the molecule record lists pIC50 as 4.42

For CC(C)[C@H](N)C(=O)N=S(N)(=O)c1cc2sccc2s1 (some centres unmarked) [ANASIA-118] the molecule record lists pIC50 as 4.28

For CC[C@H](C)[C@H](N)C(=O)N=[S@](N)(=O)c1ccc(Cl)c(Cl)c1 [ANASIA-036-1] the molecule record lists pIC50 as 5.10

For CC[C@H](C)[C@H](N)C(=O)N=[S@](N)(=O)c1ccc(Cl)cc1 [ANASIA-035-1] the molecule record lists pIC50 as 4.74

====

systemName: Leucyl-tRNA synthetase (LeuRS) (Escherichia coli (strain K12))
protocolNotes: Leucyl-tRNA synthetase enzyme inhibition (AMP-Glo; single point % inhibition at 100 μM and IC50)
Type: biochemical
conditionNotes: E. coli LeuRS; read-out: Enzyme Inhibition - IC50, E. coli LeuRS
Provide the reported IC50 of each item.
I only need the number, in nM, no unit after it.

For `CC(C)C[C@H](N)C(=O)N=[S@@](N)(=O)c1ccsc1Cl` the compound record lists IC50 as 1970

For `CC(C)C[C@H](N)C(=O)N=[S@@](N)(=O)c1ccsc1C(F)F` the compound record lists IC50 as 1720

For `CC(C)C[C@H](N)C(=O)N=[S@@](N)(=O)c1sccc1Cl` the compound record lists IC50 as 3230

For CC(C)C[C@H](N)C(=O)N=S(N)(=O)c1cscc1C(N)=O (stereo partly drawn) the compound record lists IC50 as 2160

For `CC(C)C[C@H](N)C(=O)N=[S@@](N)(=O)c1ccc(Cl)c(Cl)c1` the compound record lists IC50 as 7920

For `Cc1c([S@](N)(=O)=NC(=O)[C@@H](N)CC(C)C)csc1Cl` the compound record lists IC50 as 1930

====

systemName: Leucyl-tRNA synthetase (LeuRS) (Escherichia coli (strain K12), UniProt P07813)
Sequence (P07813 whole entry, looked up): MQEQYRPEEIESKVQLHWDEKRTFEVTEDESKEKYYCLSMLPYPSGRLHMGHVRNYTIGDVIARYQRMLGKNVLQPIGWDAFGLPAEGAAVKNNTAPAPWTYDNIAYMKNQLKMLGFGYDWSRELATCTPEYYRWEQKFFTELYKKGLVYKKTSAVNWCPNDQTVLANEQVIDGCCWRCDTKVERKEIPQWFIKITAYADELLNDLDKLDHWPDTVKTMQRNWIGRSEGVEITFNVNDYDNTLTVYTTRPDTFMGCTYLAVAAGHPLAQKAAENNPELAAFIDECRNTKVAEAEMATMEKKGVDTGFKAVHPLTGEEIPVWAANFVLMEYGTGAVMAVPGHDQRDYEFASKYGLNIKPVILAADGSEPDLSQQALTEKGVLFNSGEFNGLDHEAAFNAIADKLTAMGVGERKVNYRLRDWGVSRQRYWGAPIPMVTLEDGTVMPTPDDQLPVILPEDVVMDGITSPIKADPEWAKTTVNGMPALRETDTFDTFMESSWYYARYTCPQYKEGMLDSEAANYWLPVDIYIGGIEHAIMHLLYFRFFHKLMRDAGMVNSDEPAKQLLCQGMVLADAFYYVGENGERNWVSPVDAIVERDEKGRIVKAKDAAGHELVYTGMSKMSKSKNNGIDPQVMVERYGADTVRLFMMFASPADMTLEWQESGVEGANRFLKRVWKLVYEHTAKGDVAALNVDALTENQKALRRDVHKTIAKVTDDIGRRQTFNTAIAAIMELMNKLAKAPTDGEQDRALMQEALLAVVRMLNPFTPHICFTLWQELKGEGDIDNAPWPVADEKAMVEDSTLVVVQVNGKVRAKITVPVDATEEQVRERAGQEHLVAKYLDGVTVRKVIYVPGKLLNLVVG
protocolNotes: Leucyl-tRNA synthetase enzyme inhibition (AMP-Glo; single point % inhibition at 100 μM and IC50)
Assay type: biochemical
resultType: pIC50
Keep in mind that pIC50 stands for -log10 of concentration in molar terms.

For CC(C)C[C@H](N)C(=O)N=S(N)(=O)c1nc(Cl)cs1 (mixture of isomers) the molecule record lists pIC50 as 5.26

For CC(C)C[C@H](N)C(=O)N=S(N)(=O)c1ccc(C(F)F)s1 (stereo partly drawn) the molecule record lists pIC50 as 6.84

For `Cc1ccc([S@@](N)(=O)=NC(=O)[C@@H](N)CC(C)C)cc1` the molecule record lists pIC50 as 5.69

For `Cc1ccc([S@@](N)(=O)=NC(=O)[C@@H](N)CC(C)C)s1.Cl` the molecule record lists pIC50 as 7.09

For `CC(C)C[C@H](N)C(=O)N=[S@](N)(=O)c1nc(C(F)F)cs1` the molecule record lists pIC50 as 5.16

For `CC(C)C[C@H](N)C(=O)N=[S@](N)(=O)c1sc(Cl)cc1Cl.Cl` the molecule record lists pIC50 as 6.53

====

Tested on: bacteria (ATCC reference strains)
protocolNotes: Antibacterial activity, MIC by broth micro-dilution (CLSI)
conditionNotes: Escherichia coli, BAA2469, read-out: Antibacterial Activity (MIC), G = E. coli BAA-2469
resultType: MIC (µg/mL)
I only need the number, in µg/mL, no unit after it.

For CC(C)C[C@H](N)C(=O)N=S(N)(=O)c1ccc(F)s1 (stereo partly drawn) the compound record lists MIC as 8

For `CC(C)C[C@H](N)C(=O)N=[S@](N)(=O)c1nc(Cl)cs1.Cl` the compound record lists MIC as 45.3

For `CCc1ccsc1[S@@](N)(=O)=NC(=O)[C@@H](N)CC(C)C.Cl` the compound record lists MIC as 8

For `Cc1cc([S@@](N)(=O)=NC(=O)[C@@H](N)CC(C)C)cs1.Cl` the compound record lists MIC as 4

For CC(=O)c1sccc1[S@@](N)(=O)=NC(=O)[C@@H](N)CC(C)C (single isomer, unassigned) the compound record lists MIC as 64

For `CC(C)C[C@H](N)C(=O)N=[S@](N)(=O)c1scc(Cl)c1Cl.Cl` the compound record lists MIC as 8

For `CC(C)C[C@H](N)C(=O)N=[S@](N)(=O)c1scc(F)c1F.Cl` the compound record lists MIC as 10.1

For `CC(C)C[C@H](N)C(=O)N=[S@](N)(=O)c1cccc(Cl)c1.Cl` the compound record lists MIC as 4

For `Cc1cscc1[S@@](N)(=O)=NC(=O)[C@@H](N)CC(C)C.Cl` the compound record lists MIC as 64

For `CC(C)C[C@H](N)C(=O)N=[S@](N)(=O)c1cc(Cl)c(Cl)s1.Cl` the compound record lists MIC as 16

For CC(C)C[C@H](N)C(=O)N=[S@](N)(=O)c1cccs1.Cl (single isomer, unassigned) the compound record lists MIC as 5.04

For CC(C)C[C@H](N)C(=O)N=S(N)(=O)c1cc(F)c(F)s1 (stereo partly drawn) the compound record lists MIC as 64

For `CC(C)C[C@H](N)C(=O)N=[S@](N)(=O)c1csc(Cl)c1.Cl` the compound record lists MIC as 4

For `CC(C)C[C@H](N)C(=O)N=[S@](N)(=O)c1ccc(C(F)F)s1.Cl` the compound record lists MIC as 22.6

For `Cc1ccsc1[S@@](N)(=O)=NC(=O)[C@@H](N)CC(C)C.Cl` the compound record lists MIC as 5.66

For `CC(C)C[C@H](N)C(=O)N=[S@@](N)(=O)c1csc(C#N)c1.Cl` the compound record lists MIC as 64

For `CC(C)C[C@H](N)C(=O)N=[S@](N)(=O)c1ccsc1Cl.Cl` the compound record lists MIC as 11.3

For `CC(C)C[C@H](N)C(=O)N=[S@](N)(=O)c1ccsc1C(F)F.Cl` the compound record lists MIC as 32

For `CC(C)C[C@H](N)C(=O)N=[S@](N)(=O)c1csc2ccsc12.Cl` the compound record lists MIC as 5.66

For CC(C)C[C@H](N)C(=O)N=S(N)(=O)c1ccsc1F (stereo partly drawn) the compound record lists MIC as 16

====

systemName: Leucyl-tRNA synthetase (LeuRS) (Escherichia coli (strain K12))
protocolNotes: Leucyl-tRNA synthetase enzyme inhibition (AMP-Glo; single point % inhibition at 100 μM and IC50)
Assay type: biochemical
conditionNotes: E. coli LeuRS; read-out: Enzyme Inhibition - IC50, E. coli LeuRS
Structures can show the parent of a compound that is named as a salt.
Provide the reported pIC50 of each item.
Keep in mind that pIC50 stands for -log10 of concentration in molar terms.

For CC(C)C[C@H](N)C(=O)N=[S@@](N)(=O)c1ccccc1 [ANASIA-003-2, hydrochloride] the compound record lists pIC50 as 5.65

For `Cc1ccsc1[S@](N)(=O)=NC(=O)[C@@H](N)CC(C)C` the compound record lists pIC50 as 5.73

For CC(C)C[C@H](N)C(=O)N=S(N)(=O)c1sccc1F (stereo partly shown) the compound record lists pIC50 as 6.84

For CC(C)C[C@H](N)C(=O)N=S(N)(=O)c1cccc(OC(F)(F)F)c1 (stereo partly shown) the compound record lists pIC50 as 6.70

====

Provide the reported log10(IC50) of each item.
systemName: Leucyl-tRNA synthetase (LeuRS) (Escherichia coli (strain K12))
protocolNotes: Leucyl-tRNA synthetase enzyme inhibition (AMP-Glo; single point % inhibition at 100 μM and IC50)
Format: biochemical
Protocol: Study 1—Enzyme Inhibition The aminoacylation reaction catalyzed by aminoacyl-tRNA synthetases (aaRS) takes place in two steps. […] The activity of the pathogenic aaRSs was monitored by measuring AMP production using the commercial kit AMP-Glo (Promega, Madison, USA). […] Using the same enzymatic assay in a 384-well plate format, ten point concentration response curves were generated for each compound using a top concentration of 10 μM. […] The IC50 was calculated based on non-linear regression analysis.
Structures can show the parent of a compound that is named as a salt.
Values are log10 of IC50 in nM.

For `COc1ccc([S@@](N)(=O)=NC(=O)[C@@H](N)CC(C)C)cc1C` the compound record lists log10(IC50) as 3.82

For `Cc1csc([S@@](N)(=O)=NC(=O)[C@@H](N)CC(C)C)c1C.Cl` the compound record lists log10(IC50) as 2.38

For `CC(C)C[C@H](N)C(=O)N=[S@@](N)(=O)c1cccc(Cl)c1Cl` the compound record lists log10(IC50) as 3.41

For `Cc1cc(F)ccc1[S@@](N)(=O)=NC(=O)[C@@H](N)CC(C)C` the compound record lists log10(IC50) as 3.66

For `Cc1c([S@@](N)(=O)=NC(=O)[C@@H](N)CC(C)C)csc1Cl.Cl` the compound record lists log10(IC50) as 2.22

For `CC(C)C[C@H](N)C(=O)N=[S@](N)(=O)c1ccc(F)c2ccccc12` the compound record lists log10(IC50) as 3.31

For `CC(C)C[C@H](N)C(=O)N=[S@](N)(=O)c1scc(F)c1F.Cl` the compound record lists log10(IC50) as 1.29

For `N[C@@H](CC1CC1)C(=O)N=[S@](N)(=O)c1ccccc1` the compound record lists log10(IC50) as 3.64

For `CC(C)C[C@H](N)C(=O)N=[S@](N)(=O)c1cccc(Cl)c1.Cl` the compound record lists log10(IC50) as 1.44

For `CC(C)C[C@H](N)C(=O)N=[S@](N)(=O)c1ccsc1Cl.Cl` the compound record lists log10(IC50) as 1.68

For `CC(C)C[C@H](N)C(=O)N=[S@](N)(=O)c1cc(F)cs1` the compound record lists log10(IC50) as 1.68

For `COc1ccc([S@@](N)(=O)=NC(=O)[C@@H](N)CC(C)C)s1.Cl` the compound record lists log10(IC50) as 3.41

For `Cc1ccsc1[S@@](N)(=O)=NC(=O)[C@@H](N)CC(C)C.Cl` the compound record lists log10(IC50) as 1.75

For `CC(C)C[C@H](N)C(=O)N=[S@](N)(=O)c1cccc(-c2ccccc2)c1` the compound record lists log10(IC50) as 2.35

For `CC(C)C[C@H](N)C(=O)N=[S@](N)(=O)c1cc(Cl)cs1.Cl` the compound record lists log10(IC50) as 1.33

For `CC(C)C[C@H](N)C(=O)N=[S@](N)(=O)c1csc(Cl)c1Cl.Cl` the compound record lists log10(IC50) as 2.48

For CC(C)C[C@H](N)C(=O)N=[S@](N)(=O)c1cccc(-c2cccc(F)c2)c1 [ANASIA-051-1, hydrochloride] the compound record lists log10(IC50) as 2.78

For CC(C)C[C@H](N)C(=O)N=S(N)(=O)c1ccn(C)n1 (some centres unmarked) the compound record lists log10(IC50) as 2.38

For `CC(C)C[C@H](N)C(=O)N=[S@](N)(=O)c1c(F)cccc1F` the compound record lists log10(IC50) as 2.75

For `CC(C)C[C@H](N)C(=O)N=[S@](N)(=O)c1cccc(Br)c1.Cl` the compound record lists log10(IC50) as 1.85

For `CCc1ccsc1[S@@](N)(=O)=NC(=O)[C@@H](N)CC(C)C.Cl` the compound record lists log10(IC50) as 2.00

For `CC(C)C[C@H](N)C(=O)N=[S@](N)(=O)c1csc2ccsc12.Cl` the compound record lists log10(IC50) as 1.44

For `CC(C)C[C@H](N)C(=O)N=[S@@](N)(=O)c1ccccc1F.Cl` the compound record lists log10(IC50) as 2.46

For `CC(C)C[C@H](N)C(=O)N=[S@](N)(=O)c1cccc(C(C)C)c1.Cl` the compound record lists log10(IC50) as 2.05

For `CC(C)C[C@H](N)C(=O)N=[S@@](N)(=O)c1cccc(C(F)(F)F)c1` the compound record lists log10(IC50) as 3.38

For `CC(C)C[C@H](N)C(=O)N=[S@](N)(=O)c1ccc(C(C)C)s1` the compound record lists log10(IC50) as 2.89

For `CC(C)C[C@H](N)C(=O)N=[S@](N)(=O)c1ccsc1C(F)F.Cl` the compound record lists log10(IC50) as 2.32

For CC(=O)c1sccc1[S@@](N)(=O)=NC(=O)[C@@H](N)CC(C)C (single isomer, unassigned) the compound record lists log10(IC50) as 2.47

For `CC(C)C[C@H](N)C(=O)N=[S@](N)(=O)c1ccsc1.Cl` the compound record lists log10(IC50) as 1.49
